The measured values listed here are drawn from patent US10233186B2.

# pIC50 per record follows
Biological target: human ALK2 R206H (Homo sapiens, UniProt Q04771, R206H)
Construct: expressed in transfected cells; host or cells: HEK293 (ATCC CRL1573), lentivirus transduction, blasticidin selection
Sequence (Q04771 21-509 R206H): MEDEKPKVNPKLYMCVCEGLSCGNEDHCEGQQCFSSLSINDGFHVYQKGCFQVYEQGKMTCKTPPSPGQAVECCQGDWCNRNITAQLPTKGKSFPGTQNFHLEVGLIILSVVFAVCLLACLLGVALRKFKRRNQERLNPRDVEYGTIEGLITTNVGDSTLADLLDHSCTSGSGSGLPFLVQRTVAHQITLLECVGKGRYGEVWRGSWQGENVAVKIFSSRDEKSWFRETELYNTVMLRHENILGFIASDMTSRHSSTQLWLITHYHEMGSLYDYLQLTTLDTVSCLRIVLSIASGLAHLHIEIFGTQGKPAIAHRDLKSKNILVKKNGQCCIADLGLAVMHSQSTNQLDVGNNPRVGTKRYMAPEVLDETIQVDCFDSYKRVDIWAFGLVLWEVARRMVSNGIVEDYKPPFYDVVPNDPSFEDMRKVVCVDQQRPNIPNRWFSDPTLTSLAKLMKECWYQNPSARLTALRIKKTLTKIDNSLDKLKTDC
Test: Cell-based ALK2-R206H cell activity assay (Smad1-Ser463/Ser465 phosphorylation by AlphaLISA in HEK293-ALK2-R206H cells)
Conditions: read-out: Cell Line (Cell Assay IC50)
pIC50: −log10 of the molar value.

Solved cases (3 shown):
CCOC(=O)N1CCN(c2ccnn3cc(-c4ccc([C@]5(F)CCCN(C(C)C)C5)cn4)cc23)CC1 [Compound 613]	> 7.00
O=C(C1CC1)N1CCN(c2ccnn3cc(-c4ccc(OCC5CCN5)cc4)cc23)CC1 (stereo not shown) [Compound 132]	> 7.00
N#C[C@H]1CC[C@H](C(=O)N2CCN(c3ccnn4cc(-c5ccc(C6CNCCO6)cc5)cc34)CC2)CC1 (stereo partly shown) [Compound 375]	> 7.00

[Q] What measured pIC50 goes with CC(C)N1CCC(c2ccc(-c3cc4c(N5CCN(C(=O)[C@H]6C[C@@H]6C#N)CC5)ccnn4c3)cc2)CC1 [Compound 365] ?
[A] > 7.00

[Q] What measured pIC50 goes with CCN1CCC(COc2ccc(-c3cc4c(N5CCN(C(=O)C6CC6)CC5)ccnn4c3)cc2)C1 (stereo not shown) [Compound 270] ?
[A] > 7.00
